# Test system: SR
# Assay Info: NCI tumour cell line growth inhibition, 48 h
The source made the active and inactive calls. Cut-off read from the data, not from the text of the source: active = GI50 up to about 1.1 µM and inactive = higher.
Outcome codes: active, inactive

>>> label_value("COc1cc(CC2C(=O)OCC2Cc2ccc(OC)c(OC)c2)ccc1O (stereo not given)")
"inactive"
>>> label_value("N#C[BH2-][n+]1cn(C2CC(O)C(COP(=O)(O)OC3CC(n4c[n+]([BH2-]C#N)c5c(=O)[nH]c(N)nc54)OC3CO)O2)c2nc(N)[nH]c(=O)c21 (stereo not given)")
"inactive"
>>> label_value("O=C1CCCc2cc3c(cc21)CC1(C3)Cc2ccc3c(c2C1)C(=O)CCC3 (stereo not given)")
"inactive"
>>> label_value("O=[N+]([O-])c1cccnc1NCC1(CO)CCCC1")
"inactive"
>>> label_value("O=c1[nH][nH]c(=O)[nH]1")
"inactive"
>>> label_value("O=C(NC(CCCCN1C(=O)c2ccccc2C1=O)P(=O)(Oc1ccccc1)Oc1ccccc1)OCc1ccccc1 (stereo not given)")
"inactive"
>>> label_value("CCOC(C)C(/C=N/NC(N)=S)=NNC(N)=S (stereo not given)")
"active"
>>> label_value("O=C1c2ccccc2C(=O)N1n1c(Cc2ccc(Cl)cc2)n[nH]c1=O")
"inactive"
>>> label_value("CCCC#CCOC(=O)c1cc([N+](=O)[O-])cc([N+](=O)[O-])c1")
"inactive"
>>> label_value("CC1(Cl)CCC2(CC(Br)=CC3OC32C)CC1Br (stereo not given)")
"inactive"
>>> label_value("C/C(Nc1ccc(Cl)cc1Cl)=C1/CCOC1=O")
"inactive"
>>> label_value("Cn1cnc([N+](=O)[O-])c1Sc1nnc(C(F)(F)F)n1C")
"inactive"
>>> label_value("COc1ccc2nc3cccc([N+](=O)[O-])c3c(NCCC(=O)O)c2c1")
"inactive"
>>> label_value("COc1nc2c(c(O)c(C)c(=O)n2OC2OC(COC(C)=O)C(OC(C)=O)C(OC(C)=O)C2OC(C)=O)c(=O)n1C (stereo not given)")
"inactive"
>>> label_value("CC(=O)NC1C(OC(C)C(=O)NC(C)C(=O)NC(CCC(=O)NCCCCCNc2ccc([N+](=O)[O-])c3[nH]c4ccccc4c(=O)c23)C(N)=O)C(O)C(CO)OC1(C)OCc1ccccc1 (stereo not given)")
"inactive"
>>> label_value("O=C(O)C(CO)NC(=O)n1c2ccccc2c2ccccc21 (stereo not given)")
"inactive"
>>> label_value("COc1ccc2c(-c3ccc(OCCN(C)C)cc3)c(Oc3ccc(Cl)cc3)c(=O)oc2c1")
"inactive"
>>> label_value("N#CCc1c(F)c(F)c(F)c(F)c1F")
"inactive"
>>> label_value("CCOc1ccc(/C=C2/C(=O)N=C(N)N=C2N)cc1OCC")
"inactive"
>>> label_value("COc1ccc(-c2c3c(nc4nc(SCCc5ccccc5)nc(N)c24)CCCC3)cc1OC")
"inactive"

---

Listing: GI50 of selected compounds
# System: MCF7
# Assay Info: NCI tumour cell line growth inhibition, 48 h
Activity calls are given as the source filed them. Rule as the data show it: active = GI50 up to about 1.1 µM and inactive = higher.
Recorded Endpoint: GI50

>>> obs_value("Cc1csc(/N=C(/NCCN2CCOCC2)Nc2nc(C)cs2)n1")
"> 84.5 µM (inactive)"
>>> obs_value("Cc1ccc(/N=N/C(=N\\NC(=O)c2ccc(C)cc2)c2ccc(N(CCC#N)CCC#N)cc2C)cc1")
"31 µM (inactive)"
>>> obs_value("Cc1ccc(S(=O)(=O)Nn2c(S)c(C#N)c(-c3ccc([N+](=O)[O-])cc3)c(C#N)c2=O)cc1")
"25.6 µM (inactive)"
>>> obs_value("Cc1nc(O)nc(N/N=C/c2c3ccccc3c(Cl)c3ccccc23)c1C(=O)Nc1ccc(Cl)cc1")
"> 100 µM (inactive)"
>>> obs_value("COc1cccc(CSCC(=O)O)c1")
"> 100 µM (inactive)"
>>> obs_value("COc1ccc(/C=C2\\N=C(c3ccccc3)N(NC3=NC(=O)CC(=O)N3)C2=O)cc1")
"20.4 µM (inactive)"
>>> obs_value("CCCNC(=O)N(C)C(=O)N1N=C(c2ccccc2)C1c1ccccc1 (stereo unspecified)")
"> 100 µM (inactive)"
>>> obs_value("COc1cc(OCc2nc3ccccc3n3cccc23)cc(OC)c1OC")
"3.61 µM (inactive)"
>>> obs_value("N#C[BH2-][n+]1cn(C2CC(O)C(COP(=O)(O)OC3CC(n4c[n+]([BH2-]C#N)c5c(=O)[nH]c(N)nc54)OC3CO)O2)c2nc(N)[nH]c(=O)c21 (stereo unspecified)")
"> 100 µM (inactive)"
>>> obs_value("Cc1ccc(OCCn2cc(Nc3ccccc3)c(=O)n(CCOc3ccc(C)cc3)c2=O)cc1")
"> 100 µM (inactive)"
>>> obs_value("COc1cc(/C=C2\\CCC/C(=C\\c3cc(OC)c(O)c(OC)c3)C2=O)cc(OC)c1O")
"3.12 µM (inactive)"
>>> obs_value("N#CCOc1ccc(/C=C/C(=O)c2ccc(Cl)cc2)cc1")
"11.4 µM (inactive)"
>>> obs_value("O/N=C(/CC(O)(C(F)(F)F)C(F)(F)F)c1ccccc1")
"> 10 µM (inactive)"
>>> obs_value("O=C(c1ccco1)n1c2ccc(Br)cc2c2nc3ccccc3nc21")
"5.09 µM (inactive)"
>>> obs_value("CSc1n[nH]c2[nH]nc(C)c12")
"> 100 µM (inactive)"
>>> obs_value("O=c1[nH]nc(Cc2ccc([N+](=O)[O-])cc2)[nH]1")
"> 100 µM (inactive)"
>>> obs_value("CCOCCOCCOCc1nc(C#N)c(N)o1")
"> 100 µM (inactive)"
>>> obs_value("COC(Cc1ccccc1)NC(C)=O (stereo unspecified)")
"> 100 µM (inactive)"
>>> obs_value("Cc1cc(S(=O)(=O)Nc2n[nH]c(Nc3ccccc3)n2)c(S)cc1Cl")
"> 10 µM (inactive)"
>>> obs_value("CCC(C(=O)C(=O)OC)P1(=O)OC(C)(C)CN1C(C)(C)C (stereo unspecified)")
"26.9 µM (inactive)"
>>> obs_value("COc1cccc(CCNc2c(C#N)c3n(c4ccccc4[n+]3C)c3ncccc23)c1")
"1.52 µM (inactive)"
